test: LD50 rats; assay type: in vivo; conditions: rat, in vivo, ip, intraperitoneal
Some compounds, each annotated with its measured LD50.
// units = mg/kg; emit number, no label

What value of LD50 has been reported for the following compound? Nc1nc(-c2ccc(Cl)cc2)c(CC(=O)O)s1 [LR 331]
840

Fill blank: measured LD50 of the compound CCN(CC)CCNC(=O)Cc1sc(N)nc1-c1ccc(Cl)cc1 [LR 450] is ____.
47

Need LD50, item CCN(CC)c1nc(-c2ccc(Cl)cc2)c(CC(=O)O)s1 [LR 407]
385

----------
assay: LD50 rats; format: in vivo; conditions: rat, in vivo, po
METRIC: LD50

structure_notation=CCN(CC)CCNC(=O)Cc1sc(N)nc1-c1ccc(Cl)cc1 observed_measurement="915 mg/kg"
structure_notation=O=C(O)Cc1sc(Nc2ccccc2)nc1-c1ccc(Cl)cc1 observed_measurement="> 2000 mg/kg"
structure_notation=Nc1nc(-c2ccc(Cl)cc2)c(CC(=O)O)s1 observed_measurement="> 1000 mg/kg"

Now take the following compound into account.
Fill in: LD50 of "CCN(CC)c1nc(-c2ccc(Cl)cc2)c(CC(=O)O)s1" is ___
> 1500 mg/kg

----------
assay: LD50 mice; settings: mouse, in vivo, ip, intraperitoneal
METRIC: LD50

Examples with answers:
structure_notation=O=C(O)Cc1sc(NC(=O)Nc2ccccc2)nc1-c1ccc(Cl)cc1 observed_measurement="> 1000 mg/kg"
structure_notation=O=C(O)Cc1sc(Nc2c(Cl)cccc2Cl)nc1-c1ccccc1 observed_measurement="> 1000 mg/kg"

Quick one: LD50 of "O=C(O)Cc1sc(Nc2ccccc2)nc1-c1ccc(Cl)cc1" ?
> 1000 mg/kg
